- Assay Comment: qHTS for Inhibitors of human tyrosyl-DNA phosphodiesterase 1 (TDP1): qHTS in cells in absence of CPT; further: nearly all actives have a fitted effect of over 55% in size
- Condition Set: DT40 Tdp1-/- hTDP1 cells, no CPT, ATP luminescence, 48 h
The whole screen tested about 420,000 compounds, of which about 64,000 (15%) were called active. Not shown: some 27% with an inconclusive outcome. The call rests on the fitted dose curve; in most records, active means well fitted inhibition curve with a large enough effect; inconclusive means small, poorly fitted or top-dose-only effect; inactive means flat fitted curve, though single readings scatter. A selection follows.
Possible outcomes: active, inactive

Molecule	Category Label
O=C(c1ccc(C(F)(F)F)cc1)N1CCC(c2nc(-c3ccc(S(=O)(=O)N4CCCC4)cc3)no2)CC1	active
CC(C)(C)c1ccc(S(=O)(=O)N2CCN(C(=O)c3ccc4c(c3)C(=O)N(Cc3ccncc3)C4=O)CC2)cc1	inactive
CCN(CC(=O)NCc1cccs1)C(=O)c1cccc(S(=O)(=O)Nc2ccccc2OC)c1	inactive
CC(C)N1C(=O)c2ccccc2NC(=O)C1C(=O)NCc1cccs1 (stereo not given)	inactive
O=C(CSCc1ccc([N+](=O)[O-])cc1)Nc1cccc(C(=O)Nc2ccccc2C(=O)O)c1	inactive

* * *

- Assay Comment: qHTS for Inhibitors of human tyrosyl-DNA phosphodiesterase 1 (TDP1): qHTS in cells in absence of CPT; further: nearly all actives have a fitted effect of over 55% in size; further: potency means the concentration at half of the fitted maximal effect
- Condition Set: DT40 Tdp1-/- hTDP1 cells, no CPT, ATP luminescence, 48 h
Out of some 420,000 compounds screened, about 64,000 (15%) were called active. About 27% were inconclusive and are not listed. A selection follows.
Recorded Metric: Potency

Compound	Recorded Metric	Result
CCOC(=O)c1cccc(NS(=O)(=O)c2cn(C)c(C)n2)c1	Potency	inactive
CCNS(=O)(=O)c1cc(-c2nnc(Nc3cccc(C(F)(F)F)c3)c3ccccc23)ccc1C	Potency	5.8 µM (active)
O=C(CN1CCc2ccccc21)NC(c1ccccc1)c1ccccc1	Potency	inactive
O=C(CN1C(=O)COc2ccc(Cl)cc21)N1CCOCC1	Potency	inactive
COc1ccc(-c2onc(C)c2C)cc1S(=O)(=O)NCc1cccs1	Potency	18.4 µM (active)
COc1ccc(CNC(=O)CN(Cc2ccc(Cl)cc2)S(C)(=O)=O)cc1	Potency	inactive
Cc1ccc(-c2nnc(Nc3cccc(Br)c3)c3ccccc23)cc1S(=O)(=O)NCC1CCCO1 (stereo not drawn)	Potency	11.6 µM (active)
Cc1cc(=O)cc(C)[nH]1	Potency	inactive
COc1cc([N+](=O)[O-])cc([N+](=O)[O-])c1NC(=O)N1CCOCC1	Potency	inactive
CCOC(=O)c1oc2c(CN3CCN(CCO)CC3)c(O)c(CC)cc2c(=O)c1-c1nc2ccccc2s1	Potency	inactive
CCOc1cc(-c2cc(-c3ccc(NC(C)=O)cc3)nc(N)c2C#N)ccc1O	Potency	20.6 µM (active)
Cc1ccc2oc(=O)c3cnn(CC(=O)NCc4ccccc4Cl)c3c2c1	Potency	inactive
O=C(N/N=C/c1ccc(O)cc1)/C(=C/c1ccc([N+](=O)[O-])cc1)NC(=O)c1ccccc1	Potency	inactive
N#Cc1cccc(CN2CCC(=O)N([C@H](CO)c3ccccc3)CC2)c1	Potency	inactive
CC(=O)Nc1ccc(-c2cn3cccnc3n2)cc1	Potency	inactive
Cc1nc2nc(CSc3nc4ccccc4s3)cc(=O)n2[nH]1	Potency	inactive
CSCC[C@H](NC(=O)NCCc1ccc(F)cc1)C(=O)O	Potency	inactive
CCCn1c2ccccc2c2cnn(CC(=O)NCCCN3CCCCC3CC)c(=O)c21 (stereo not drawn)	Potency	inactive
O=C(Nc1ccc(Cl)cn1)c1ccc2c(c1)OCCO2	Potency	18.4 µM (active)
O=C(NC(c1ccccc1)c1ccccc1)N1CCN(CCO)CC1	Potency	inactive
Oc1ccccc1C=NC1CCCCC1N=Cc1ccccc1O (stereo not drawn)	Potency	inactive
NC(=O)c1sc2nc3c(c(-c4ccccc4)c2c1N)CCC3	Potency	13 µM (active)
COc1c(Cl)cc(C(=O)Nc2ccc(Cl)cn2)cc1Cl	Potency	inactive
COC(=O)[C@]1(C)N[C@H](CN(C)C(=O)c2ccc(C(C)(C)C)cc2)[C@@H]2C(=O)N(C)C(=O)[C@@H]21	Potency	inactive
Cc1cc(Cl)c(S(=O)(=O)NCC2CCCO2)cc1OCC(N)=O (stereo not drawn)	Potency	inactive
CC(C)Cn1c(N)c(C(=O)NCc2cccs2)c2nc3ccccc3nc21	Potency	20.6 µM (active)
Cn1nnnc1SCC(=O)Nc1cccc(S(=O)(=O)N2CCCCC2)c1	Potency	inactive
O=C(Nc1cccc(S(=O)(=O)N2CCCCC2)c1)c1cncc(Br)c1	Potency	18.4 µM (active)
Cc1ccc(C(=O)O)cc1S(=O)(=O)NCC1CCCO1 (stereo not drawn)	Potency	inactive
C[n+]1ccc(/C=C/c2c[nH]c3ccccc23)cc1	Potency	0.651 µM (active)
CCOC(=O)N1CCC(NC(=O)C(C)n2c3ccccc3c3cnn(C)c(=O)c32)CC1 (stereo not drawn)	Potency	inactive
Cc1ccc(C(=O)O)cc1NC(=O)c1ccc(Cn2nc(C)c(Cl)c2C)o1	Potency	inactive
O=C(Cn1ncc2c3ccccc3n(Cc3ccccc3)c2c1=O)NC1CCCCCC1	Potency	3.66 µM (active)
Cc1cc2c(cc1C)NC(c1ccccn1)C1=C(CC(C)(C)CC1=O)N2 (stereo not drawn)	Potency	inactive
Cc1c2cnn(CC(=O)NCc3ccccn3)c(=O)c2c(C)n1Cc1ccc(Cl)cc1	Potency	inactive
Cc1cccc(C(=O)Nc2nnc(S(=O)(=O)N3CCCCCC3)s2)c1	Potency	inactive
Cc1ccc(NC(=S)N/N=C2/CCCc3c(C)cc(C)cc32)cc1	Potency	inactive
CCS(=O)(=O)N(C)[C@@H]1c2cc(C#N)ccc2OC(C)(C)[C@H]1O	Potency	inactive
Cc1cccc(NC(=O)c2sc3nc4c(c(-c5ccco5)c3c2N)CCC4)c1	Potency	25.9 µM (active)
CCCC1(C(=O)OC)NC(c2ccco2)C2C(=O)N(C)C(=O)C21 (stereo not drawn)	Potency	inactive
CC(=O)Nc1ccc(NC(=O)c2sc3nc4c(c(-c5ccc(C)cc5)c3c2N)CCC4)cc1	Potency	inactive
CCN(CC)S(=O)(=O)c1ccc2nc(CSc3nnnn3-c3ccc(O)cc3)[nH]c2c1	Potency	inactive
O=C(NCc1cccs1)c1ccc(Br)o1	Potency	inactive

* * *

- Assay Comment: qHTS for Inhibitors of human tyrosyl-DNA phosphodiesterase 1 (TDP1): qHTS in cells in absence of CPT; further: nearly all actives have a fitted effect of over 55% in size
- Condition Set: DT40 Tdp1-/- hTDP1 cells, no CPT, ATP luminescence, 48 h
In all, about 420,000 compounds went through this assay and about 64,000 (15%) were called active. Inconclusive results (about 27%) are left out. The call rests on the fitted dose curve; in most records, active means well fitted inhibition curve with a large enough effect; inconclusive means small, poorly fitted or top-dose-only effect; inactive means flat fitted curve, though single readings scatter. These entries were drawn from the full list.
Possible outcomes: active, inactive

Molecule	Category Label
O=C(NC1Cc2ccccc2C1)c1cc(COc2cccc(C(F)(F)F)c2)on1	inactive
COc1cc(C2CC(=O)c3cnc(NC(C)=O)nc3C2)cc(OC)c1OC (stereo unspecified)	inactive
Cn1cccc1C(=O)N1CCc2ccccc2C1	inactive
Cc1c(C(=O)CN2CCOCC2)[nH]c2ccccc12	inactive
O=C(NCCOCc1ccc(Cl)cc1)c1ncn[nH]1	inactive
COC(=O)Cc1ccc(NC(=S)NCc2ccccc2)cc1	inactive
O=C(Nc1ccc(S(=O)(=O)Nc2nccs2)cc1)c1cc(=O)[nH]c2ccccc12	inactive
Cn1cc(C(=O)NCc2ccccc2F)cn1	inactive
C/C(=N\N(C)C)c1ccc(OCCOc2ccc([N+](=O)[O-])cc2)cc1	active
Nc1cc(N)nc(SCc2ccc(Cl)cc2)n1	inactive
O=C(Nc1cccc(S(=O)(=O)NC2=NCCC2)c1)c1ccc(F)cc1F	inactive
CNC(=O)C(=O)N/N=C/c1ccccn1	inactive
Cc1c(C#N)c2ncn(CC#N)c(=O)c2n1-c1ccccc1	inactive
O=C(c1ncn2c1c(=O)[nH]c1ccccc12)N1CCc2ccccc2C1	inactive
C/C(=N/NC(=O)CC(=O)N/N=C(\C)c1ccc([N+](=O)[O-])cc1)c1ccc([N+](=O)[O-])cc1	inactive
COc1cc(OC)cc(C(=O)OCC(=O)Nc2sccc2C(N)=O)c1	active
O=C(NCCN1CCN(Cc2ccccc2)CC1)c1cc2c(=O)[nH]c3ccccc3c2s1	active
O=C(/C=C/Sc1ncn[nH]1)c1ccc(Cl)cc1	active
Cc1ccc(-c2nn(-c3ccccc3)cc2CN(Cc2ccccc2)C(=O)CCC(=O)O)o1	inactive
Cc1cc(C(=O)CSc2nc(N)cc(=O)[nH]2)c(C)n1-c1cccc(F)c1	active
CCOC(=O)c1ccc(Nc2cc(C)nc3nc(C)nn23)cc1	inactive
Nc1ccc(Cl)c(S(=O)(=O)Nc2ccccc2Cl)c1	inactive
O=C(c1c(Cl)cccc1Cl)N1CCN(c2cccc3[nH]ccc23)CC1	inactive
O=C(O)CCC(=O)N(Cc1cccs1)Cc1cccs1	inactive
CCCCn1c(N)c(N(CCC(C)C)C(=O)COC(=O)c2cccnc2OCC)c(=O)[nH]c1=O	inactive
O=C(Nc1cc(S(=O)(=O)Nc2ccc(Cl)cc2)ccc1O)c1ccc(F)cc1F	active
COC(=O)[C@@H]1C[C@@]2(O)[C@H](O)[C@H](O)[C@H](O)C[C@H]2N1Cc1ccc(C(C)(C)C)cc1	inactive
Cc1cc(C(=O)COC(=O)CNC(=O)c2ccc(F)cc2)c(C)n1Cc1ccco1	inactive
O=C(O)C1CCCCC1C(=O)N1CCN(S(=O)(=O)c2ccc(F)cc2)CC1 (stereo unspecified)	inactive
O=C(CSc1nnc(Nc2ccccc2F)s1)NC1CCCC1	inactive
COc1cc(OC)cc(C(=O)OCC(=O)Nc2ccc(F)cc2F)c1	inactive
OCC1(CO)CC2(C1)CC(CO)(CO)C2	inactive
O=C(Cc1c(O)c2ccccc2[nH]c1=O)NCc1ccccc1	inactive
Cc1cc(C(=O)CSc2nc(N)cc(=O)[nH]2)c(C)n1CCc1ccc(Cl)cc1	active
COCCNC(=S)N1CCN(C)CC1	inactive
O=C(Nc1ccnn1C1CCN(Cc2cccc(OCCO)c2)CC1)C1CCCC1	inactive
O=C(CSc1ncn[nH]1)N/N=C/c1ccc(F)cc1	inactive
Nc1scc(-c2ccncc2)c1Cl	inactive
O=S1(=O)CC(NCc2ccccc2)C(Nc2ccc(Cl)cc2)C1 (stereo unspecified)	inactive
Cc1cc(=O)[nH]c(SCC(=O)N2c3ccccc3CC2C)n1 (stereo unspecified)	inactive
CCOC(=O)COc1ccc([N+](=O)[O-])cc1	inactive
NC(=O)c1ncn([C@@H]2O[C@H](CN=C3NS(=O)(=O)c4ccccc43)[C@@H](O)[C@H]2O)n1	inactive
CCCCC(=O)NCc1ccc(F)cc1	inactive
Cc1cc(C(=O)CSc2nc(N)cc(=O)[nH]2)c(C)n1Cc1ccco1	active
Cc1ccccc1C1CC(c2cccs2)=NN1S(C)(=O)=O (stereo unspecified)	inactive
C/C(=N\c1nc2ccccc2n1C)c1cc(Cl)ccc1O	inactive
